A collection of compounds and their measured TGI
system: KM12 colon; assay: NCI tumour cell line growth inhibition, 48 h
Test readout: TGI (µM)

| Compound | Target or test system | Qualifier | Result number |
| --- | --- | --- | --- |
| C=C1C(=O)O[C@H]2C1[C@H](OC(=O)/C(C)=C\COC(C)=O)C[C@]1(CO1)[C@@H]1[C@H](O)[C@H]3O[C@@]3(C)[C@@H]12 (stereo not given in full) | KM12 colon | = | 29.5 |
| COc1ccc(S(=O)(=O)N/N=C/C(=O)O)cc1 | KM12 colon | > | 1170 |
| C=C[C@]1(C)CC[C@]2(C)C(CC[C@@]3(C)C2C[C@H](O)[C@H](O)[C@@]3(C)O)C1 (stereo not given in full) | KM12 colon | > | 100 |
| Cc1cc(NS(=O)(=O)c2ccc(Nc3c4ccccc4nc4c(C(=O)NCCN(C)C)ccc(Cl)c34)cc2)no1 | KM12 colon | = | 19.3 |
| CC1(C)N=C(N)N=C(N)N1c1ccc(OCC(=O)Nc2cccc(S(=O)(=O)F)c2)c(Cl)c1 | KM12 colon | > | 95 |
| Oc1ccc(-c2c3c(nc4c2CCc2ccc(Br)cc2-4)-c2cc(Br)ccc2CC3)cc1 | KM12 colon | = | 42.5 |
| Cc1ccc(NC(=O)CCC(=O)C2CC(=O)CC/C2=N\NC(=O)c2cc3ccccc3cc2O)cc1C (stereo not given) | KM12 colon | > | 100 |
| CCC1OCCN1C(C)C (stereo not given) | KM12 colon | > | 100 |
| C#CC(C)(C)Oc1cc(OC)c2c(=O)c3ccccc3n(C)c2c1 | KM12 colon | = | 37.8 |
| O=CNc1cccc2c3c([nH]c12)CCCCCC3 | KM12 colon | > | 100 |

---

tested on: NCI-H460 lung; assay: NCI tumour cell line growth inhibition, 48 h
Consider the following partition of reported TGI into named classes: low = under 8 µM, medium = from 8 µM up to 30 µM, high = 30 µM and over

| Compound | Assigned category |
| --- | --- |
| CCOC(=O)/C=C1\Nc2ccccc2C12CCc1c([nH]c3ccccc13)C2C(=O)OCC (stereo unspecified) | high |
| CCCCCCCCCCCCCCCCP(=O)(O)OP(=O)(O)OCC1OC(n2ccc(N)nc2=O)C(O)C1O (stereo unspecified) | high |
| Nc1ncnc2occ(-c3ccc(NC(=O)Nc4cc(C(F)(F)F)cc(C(F)(F)F)c4)cc3)c12 | low |
| COC(=O)/C(=N\NC(=O)c1ccccc1O)C(C#N)c1ccc(Cl)cc1 (stereo unspecified) | high |
| CCCCCCCCCCCCC(=O)NCC(=O)NC(Cc1ccccc1)C(=O)Oc1ccc([N+](=O)[O-])cc1 (stereo unspecified) | high |
| Cc1ccc2ccccc2c1CC1S(=O)(=O)OCCOS1(=O)=O | medium |
| O=C1c2ccccc2-c2ccc(NC(=O)C3CCCCC3C(=O)O)cc21 (stereo unspecified) | high |
| CCCCN(CCCC)C(=NCc1ccccc1)NC#N | medium |
| O=C1/C(=C/c2cccc(Oc3ccccc3)c2)N=C(c2ccccc2)N1c1nc2ccc(Sc3ccccc3)cc2[nH]1 | high |
| COc1cc[nH]c1/C=C1\C(=O)Nc2ccc(F)c(C#CC3(O)CCOCC3)c21 | low |
| COC(=O)Cc1c(C2=Nc3ccccc3C2(O)CC(=O)OC)[nH]c2ccccc12 (stereo unspecified) | high |
| CC(C)(C)n1cc(-c2ccnc(NCCNS(=O)(=O)c3ccc(Br)cc3)c2)c(-c2cccc(O)c2)n1 | low |
| O=C1C=C(Nc2cccc(Br)c2)c2ccccc2C1=O | medium |
| Clc1ccc2c(Cl)ncnc2c1 | high |
| Oc1ccc(-c2c3c(nc4c2CCc2ccc(Br)cc2-4)-c2cc(Br)ccc2CC3)cc1 | high |
| O=C1c2ccccc2NC2C(O)c3ccccc3N12 (stereo unspecified) | high |
| CC1(C)CC(=O)C(/C=N/c2nc(-c3ccc(Br)cc3)cs2)=C(O)C1 | high |
| C=C[C@]1(C)CC[C@]2(C)C(CC[C@@]3(C)C2C[C@H](O)[C@H](O)[C@@]3(C)O)C1 (stereo partly specified) | high |
| O=C(Cn1c2ccc(Br)cc2c2nc3ccccc3nc21)NC1CCCCC1 | high |
| CCOC(=O)C1C(c2cc(OC)c(O)c(OC)c2)c2cc3c(cc2OC1(C)O)OCO3 (stereo unspecified) | high |

src = PubChem BioAssay (NCI)
